assay: Cycloheximide Counterscreen for Small Molecule Inhibitors of Shiga Toxin; conditions: cell reporter, cycloheximide protein synthesis inhibition counterscreen; also: read at 38.3 µM for the half of the compounds with a filed dose
Screen size: about 300,000 compounds; about 37,000 (12%) were called active. Rule as the data show it: active = max response mostly above about 13% (no sharp cut-off); inactive = mostly below about 14%. The list comes from a sample in which actives are over-represented; it also holds close analogues and randomly drawn compounds.
The reply should be one of these categories: active, inactive

Check out these entries, answers already filled in.
MOLECULE	CATEGORY LABEL
C#CCOc1ccc(/C=C2/C(=O)ON=C2C)cc1OCC	inactive
C/C(=N\Nc1cccc(C(=O)O)c1)c1ccc2c(c1)Nc1ccccc1S2	active
COc1ccc(S(=O)(=O)N(C)C)cc1NC(=O)CSc1ncccn1	inactive
CC(=NCc1ccc2c(c1)OCO2)C1=C(O)c2ccccc2C1=O	active
S=C(NCCC1=CCCCC1)Nc1ccccc1	active
CC(=O)c1sc(N/N=C\c2ccc(C)cc2)nc1C	active

Input line: Fill in: this test's call for "COC(=O)c1cccc(C(=O)N2CCC(CCC(=O)NCc3ccc(F)cc3)CC2)c1" is ___
Output line: inactive

Input line: Fill in: this test's call for "Cc1nnc(C)n1/N=C/c1ccc(C(C)C)cc1" is ___
Output line: inactive

Input line: Fill in: this test's call for "COc1ccc(NC(=O)NNC(=O)COc2cc(C)c(Cl)c(C)c2)c(OC)c1" is ___
Output line: inactive

Input line: Fill in: this test's call for "COc1ccc(CN2CCn3ncc(C(=O)Nc4ccc(Cl)cc4Cl)c3C2=O)cc1" is ___
Output line: inactive

Input line: Fill in: this test's call for N#Cc1cc([N+](=O)[O-])ccc1NCC1CCCO1 (stereo unspecified) is ___
Output line: inactive

Input line: Fill in: this test's call for "CCn1c(SC)nc(O)c(C(c2ccc(OC)c(O)c2)c2c(O)nc(SC)n(CC)c2=O)c1=O" is ___
Output line: inactive

Input line: Fill in: this test's call for "O=C(COc1cc(Cl)c(Cl)cc1Cl)NC(=O)NC1CCCC1" is ___
Output line: inactive

Input line: Fill in: this test's call for "COc1ccc(S(=O)(=O)NNC(=O)Nc2ccc(C)cc2)c(OC)c1" is ___
Output line: inactive

Input line: Fill in: this test's call for "Nc1ccccc1SCc1cc([N+](=O)[O-])cc2c1OCOC2" is ___
Output line: active

Input line: Fill in: this test's call for "COc1ccc(NS(=O)(=O)c2ccc3oc(SCC(N)=O)nc3c2)cc1" is ___
Output line: inactive

Input line: Fill in: this test's call for Cc1ccc(N2C(=O)C3C4C=CC(CC4)C3C2=O)cc1Cl (stereo unspecified) is ___
Output line: inactive

Input line: Fill in: this test's call for "CC1=C/C(=N\S(=O)(=O)c2ccccc2)C(C(C)C)=CC1=O" is ___
Output line: inactive

Input line: Fill in: this test's call for "Cc1ccc(SCC(=O)Nc2ncc(C)s2)cc1" is ___
Output line: active

Input line: Fill in: this test's call for "CCOC(=O)c1sc(/N=C/Nc2nc(C)c(C(=O)OCC)s2)nc1C" is ___
Output line: inactive

Input line: Fill in: this test's call for "CN(Cc1ccc(F)cc1)C(=O)COc1ccc2ccccc2c1" is ___
Output line: inactive

Input line: Fill in: this test's call for "CCc1ccccc1NC(=O)CN(c1ccc(OC)cc1OC)S(=O)(=O)c1ccccc1[N+](=O)[O-]" is ___
Output line: inactive

Input line: Fill in: this test's call for "Cc1c(C)c(C)c(S(=O)(=O)N2CCC3(CC2)OCCO3)c(C)c1C" is ___
Output line: inactive
